src = ChEMBL document CHEMBL3297685

For each of the compounds below, state its viability at 25 µM.
tested on: MCF7; test: Cytotoxicity against human MCF7 cells assessed as cell survival at 25 uM after 48 hrs by […]; assay type: functional; conditions: MCF7, 48 h, read-out: Survival
Please give a number only; it is taken to be in %.

## Input Looking for the measured viability at 25 µM of `CCOC(=O)c1nc2c3c(-c4ccc(Br)cc4)cn(-c4ccc(S(N)(=O)=O)cc4)c3ncn2n1` , can you help?
## Output 28.1

## Input Given the entry `NS(=O)(=O)c1ccc(-n2cc(-c3ccc(Br)cc3)c3c2ncn2nc4c5ccccc5nc-4nc32)cc1` , report its measured viability at 25 µM.
## Output 33.8

## Input Return reported viability at 25 µM; argument: `CC1=NN2C=Nc3c(c(-c4ccc(Br)cc4)cn3-c3ccc(S(N)(=O)=O)cc3)C2=NC(c2ccccc2)=C1`
## Output 30.6

## Input Fill in: viability at 25 µM of `CCOC(=O)C1=C(N)N=C2c3c(-c4ccc(Br)cc4)cn(-c4ccc(S(N)(=O)=O)cc4)c3N=CN2N=C1` is ___
## Output 37.7

## Input Query (compound): `CC(=O)Cc1nc2c3c(-c4ccc(Br)cc4)cn(-c4ccc(S(N)(=O)=O)cc4)c3ncn2n1` ; field requested: viability at 25 µM
## Output 39.9

## Input Which viability at 25 µM value is on record for `N#Cc1c(-c2ccc(Br)cc2)cn(-c2ccc(S(N)(=O)=O)cc2)c1N` ?
## Output 27.3

## Input Can you share its viability at 25 µM? I mean this compound: `N=c1c2c(-c3ccc(Br)cc3)cn(-c3ccc(S(N)(=O)=O)cc3)c2ncn1N`
## Output 30.9

## Input Consider the compound shown here: `COc1cccc2c1C(=O)c1c(O)c3c(c(O)c1C2=O)C[C@@](O)(C(=O)CO)C[C@@H]3O[C@H]1C[C@H](N)[C@H](O)[C@H](C)O1` What is its recorded viability at 25 µM?
## Output 30.9
